Data origin: patent US4794113A

System: Hyperlipedemic rat
method_summary: Lipid Reducing Activity (cholesterol/bile acid fed hyperlipidemic rats, serum lipids)
Format: in vivo, male Sprague-Dawley rats
measurement_context: 100 mg/kg/day p.o., 4 days, relative to control = 1
// classify: if (HDL-Chol** (cont. = 1) < 2) Y else N

Some entries whose results are on file:
CCOC(=O)C(C)(C)CCCCOc1ccc(NC(=O)CCCn2ccnc2)cc1 : N
CCOC(=O)C(C)(C)CCCOc1ccc(-c2csc(C)n2)cc1 : Y
CCOC(=O)C(C)(C)CCCCCOc1ccc(-c2csc(-c3cccnc3)n2)cc1 : N
CCOC(=O)C(C)(C)CCCCOc1ccc(OCCCCCn2ccnc2)cc1 : Y

Prompt: Lab note: HDL-Chol** (cont. = 1) threshold 2. Does this compound come in strictly under it? `CCOC(=O)C(C)(C)CCCCCOc1ccc(NC(=O)CCCCn2ccnc2)cc1`
Completion: N
